# targetUnderTest: truncated PI3Kα (p110α/iSH2 p85α) (Homo sapiens (Human))
# Sequence (P42336 whole entry, the tested form may be a part): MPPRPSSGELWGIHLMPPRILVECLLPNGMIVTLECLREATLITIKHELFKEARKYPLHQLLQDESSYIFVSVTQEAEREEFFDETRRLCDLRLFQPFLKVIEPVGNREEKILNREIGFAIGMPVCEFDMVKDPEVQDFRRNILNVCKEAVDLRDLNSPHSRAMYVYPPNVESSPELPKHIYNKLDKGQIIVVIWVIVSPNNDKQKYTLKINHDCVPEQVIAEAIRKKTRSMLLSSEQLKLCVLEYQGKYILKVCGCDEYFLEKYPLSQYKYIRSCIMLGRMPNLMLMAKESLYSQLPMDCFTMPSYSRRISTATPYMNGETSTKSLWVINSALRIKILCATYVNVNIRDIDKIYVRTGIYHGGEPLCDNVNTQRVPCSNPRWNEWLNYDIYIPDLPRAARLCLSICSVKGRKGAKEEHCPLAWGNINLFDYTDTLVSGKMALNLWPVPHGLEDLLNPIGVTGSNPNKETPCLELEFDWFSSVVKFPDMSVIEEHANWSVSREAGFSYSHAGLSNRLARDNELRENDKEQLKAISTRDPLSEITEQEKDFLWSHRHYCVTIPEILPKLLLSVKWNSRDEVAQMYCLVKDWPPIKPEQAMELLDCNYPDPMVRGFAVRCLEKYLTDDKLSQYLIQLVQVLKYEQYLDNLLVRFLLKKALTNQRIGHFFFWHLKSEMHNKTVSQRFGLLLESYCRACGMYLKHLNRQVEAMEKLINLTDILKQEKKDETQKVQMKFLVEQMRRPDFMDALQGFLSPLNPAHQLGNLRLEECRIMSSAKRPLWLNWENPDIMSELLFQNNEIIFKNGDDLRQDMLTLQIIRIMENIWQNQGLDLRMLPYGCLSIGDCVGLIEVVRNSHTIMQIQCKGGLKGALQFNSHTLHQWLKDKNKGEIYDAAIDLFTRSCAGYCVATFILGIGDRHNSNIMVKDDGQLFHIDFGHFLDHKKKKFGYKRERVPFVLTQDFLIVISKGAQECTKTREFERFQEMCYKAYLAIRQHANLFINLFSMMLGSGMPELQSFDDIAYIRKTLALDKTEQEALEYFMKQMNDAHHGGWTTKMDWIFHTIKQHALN
# assayName: PI3KA_Act fluorescence polarization kinase assay (Ki)
# Type: biochemical
# reportedConditions: 1 mM ATP
Under this convention, true denotes PI3KA_Act Ki strictly below 200 pM and false denotes PI3KA_Act Ki at or above 200 pM.

[[record]]
testsmiles = "C[C@]1(N2CCc3c(-c4cnc(N)nc4)nc(N4CCOCC4)nc32)CCN(C(=O)[C@H]2CC2(F)F)C1"
targetundertest = "truncated PI3Kα (p110α/iSH2 p85α) (Homo sapiens (Human))"
categorylabel = "true"

[[record]]
testsmiles = "COC1CN(C(=O)N2CC[C@@](C)(N3CCc4c(-c5cnc(N)nc5)nc(N5CCOCC5)nc43)C2)C1"
targetundertest = "truncated PI3Kα (p110α/iSH2 p85α) (Homo sapiens (Human))"
categorylabel = "true"

[[record]]
testsmiles = "COCCCS(=O)(=O)N1CC(N2CCc3c(-c4cnc(N)nc4)nc(N4CCOC[C@@H]4C)nc32)C1"
targetundertest = "truncated PI3Kα (p110α/iSH2 p85α) (Homo sapiens (Human))"
categorylabel = "true"

[[record]]
testsmiles = "C[C@H]1COCCN1c1nc(-c2cnc(N)nc2)c2c(n1)N(C1CN(C(=O)C3(C)CC3)C1)CC2"
targetundertest = "truncated PI3Kα (p110α/iSH2 p85α) (Homo sapiens (Human))"
categorylabel = "true"

[[record]]
testsmiles = "C[C@@H]1COCCN1c1nc(-c2cnc(N)nc2)c2c(n1)N([C@]1(C)CCN(C(=O)OC(C)(C)C)C1)CC2"
targetundertest = "truncated PI3Kα (p110α/iSH2 p85α) (Homo sapiens (Human))"
categorylabel = "false"

[[record]]
testsmiles = "C[C@]1(N2CCc3c(-c4cnc(N)nc4)nc(N4CCOCC4)nc32)CCN(C(=O)OCC2CNC2)C1.Cl"
targetundertest = "truncated PI3Kα (p110α/iSH2 p85α) (Homo sapiens (Human))"
categorylabel = "true"

[[record]]
testsmiles = "C[C@H]1COCCN1c1nc(-c2cnc(N)nc2)c2c(n1)N(C1CN(S(=O)(=O)N(C)C)C1)CC2"
targetundertest = "truncated PI3Kα (p110α/iSH2 p85α) (Homo sapiens (Human))"
categorylabel = "true"

[[record]]
testsmiles = "CC(C)(N)C(=O)N1CC[C@](C)(N2CCc3c(-c4cnc(N)nc4)nc(N4CCOCC4)nc32)C1"
targetundertest = "truncated PI3Kα (p110α/iSH2 p85α) (Homo sapiens (Human))"
categorylabel = "true"

[[record]]
testsmiles = "C[C@]1(N2CCc3c(-c4cnc(N)nc4)nc(N4CCOCC4)nc32)CCN(C(=O)c2ncc[nH]2)C1"
targetundertest = "truncated PI3Kα (p110α/iSH2 p85α) (Homo sapiens (Human))"
categorylabel = "true"

[[record]]
testsmiles = "CC(C)(C)OC(=O)N1CC(F)(C(=O)N2CC[C@](C)(N3CCc4c(-c5cnc(N)nc5)nc(N5CCOCC5)nc43)C2)C1"
targetundertest = "truncated PI3Kα (p110α/iSH2 p85α) (Homo sapiens (Human))"
categorylabel = "true"

[[record]]
testsmiles = "CNS(=O)(=O)N(C)[C@H]1C[C@H](N2CCc3c(-c4cnc(N)nc4)nc(N4CCOCC4)nc32)C1"
targetundertest = "truncated PI3Kα (p110α/iSH2 p85α) (Homo sapiens (Human))"
categorylabel = "true"

[[record]]
testsmiles = "C[C@H]1COCCN1c1nc(-c2cnc(N)nc2)c2c(n1)N([C@@]1(C)CCN(C(=O)[C@@H](N)C3CC3)C1)CC2.Cl"
targetundertest = "truncated PI3Kα (p110α/iSH2 p85α) (Homo sapiens (Human))"
categorylabel = "true"

[[record]]
testsmiles = "COCCC(=O)N1CC(N2CCc3c(-c4cnc(N)nc4)nc(N4CCOC[C@@H]4C)nc32)C1"
targetundertest = "truncated PI3Kα (p110α/iSH2 p85α) (Homo sapiens (Human))"
categorylabel = "false"

[[record]]
testsmiles = "CC(C)NC(=O)N1CC[C@](C)(N2CCc3c(-c4cnc(N)nc4)nc(N4CCOCC4)nc32)C1"
targetundertest = "truncated PI3Kα (p110α/iSH2 p85α) (Homo sapiens (Human))"
categorylabel = "false"


All figures here come from patent US9260439B2.
